Catalogue of binders with associated stoichiometry N
Target: T1, Arabidopsis COP1^349–675 WD40 domain (Arabidopsis, UniProt P43254 349-675)
T1 construct: COP1 (CONSTITUTIVELY PHOTOMORPHOGENIC 1) E3 ubiquitin ligase, Arabidopsis, WD40 domain, residues 349-675; also called COP1 WD40 domain; COP1 WD40; not shown: His10, N-terminal, cleaved; Twin-Strep, N-terminal, cleaved
T1 sequence (looked up): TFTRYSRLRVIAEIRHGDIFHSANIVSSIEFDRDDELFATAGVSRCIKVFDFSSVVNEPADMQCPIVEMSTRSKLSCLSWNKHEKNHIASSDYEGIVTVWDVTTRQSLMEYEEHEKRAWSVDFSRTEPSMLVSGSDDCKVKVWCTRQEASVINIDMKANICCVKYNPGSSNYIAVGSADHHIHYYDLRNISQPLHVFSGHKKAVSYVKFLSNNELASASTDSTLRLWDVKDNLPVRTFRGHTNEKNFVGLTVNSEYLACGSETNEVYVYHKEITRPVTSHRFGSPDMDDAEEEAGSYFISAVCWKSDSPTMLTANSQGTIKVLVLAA
Test: ITC; VP peptide (titrant, 500-3,000 μM) injected into COP1 WD40 in the cell at about 10-fold lower concentration; 150 mM NaCl, 20 mM HEPES 7.4, 2 mM BME; 25°C; one-site binding model
Conditions: both partners purified
Lab note: write the figure by itself, no unit.

Here is how some binders turned out for stoichiometry N.
>  <Binder>
GYGIVPSF (peptide, UniProt Q39057 366-373, looked up, CONSTANS (CO/BBX1) transcription factor, residues 366-373; also called CO VP peptide; CONSTANS; source: synthetic peptide (Peptide Specialty Labs GmbH)) [CO^366–373 VP peptide]

>  <stoichiometry N>
1.03

$$$$
>  <Binder>
EDQMVPSIT (peptide, UniProt Q43125 544-552, looked up, cryptochrome 1 (CRY1), Arabidopsis blue-light photoreceptor, residues 544-552 (holds Asp545); also called CRY1 VP peptide; CRY1 peptide; source: synthetic peptide (Peptide Specialty Labs GmbH)) [CRY1^544–552 VP peptide]

>  <stoichiometry N>
0.99

$$$$
>  <Binder>
NDQQVPSAV (peptide, UniProt Q96524 527-535, looked up, also called CRY2 VP peptide; source: synthetic peptide (Peptide Specialty Labs GmbH)) [CRY2^527–535 VP peptide]

>  <stoichiometry N>
1.04

$$$$

stoichiometry N measured on GFGVVPSF (peptide, UniProt Q9SK53 287-294, looked up, COL3/BBX4 transcription factor, residues 287-294 (holds Phe288); also called COL3 VP peptide; COL3 peptide; source: synthetic peptide (Peptide Specialty Labs GmbH)) [COL3^287–294 VP peptide] = 0.75
